Parameter mMC1R Fold Diff: see the listing below.
# Assayed System: mMC1R (Mus musculus, UniProt Q01727)
# Sequence (Q01727 whole entry): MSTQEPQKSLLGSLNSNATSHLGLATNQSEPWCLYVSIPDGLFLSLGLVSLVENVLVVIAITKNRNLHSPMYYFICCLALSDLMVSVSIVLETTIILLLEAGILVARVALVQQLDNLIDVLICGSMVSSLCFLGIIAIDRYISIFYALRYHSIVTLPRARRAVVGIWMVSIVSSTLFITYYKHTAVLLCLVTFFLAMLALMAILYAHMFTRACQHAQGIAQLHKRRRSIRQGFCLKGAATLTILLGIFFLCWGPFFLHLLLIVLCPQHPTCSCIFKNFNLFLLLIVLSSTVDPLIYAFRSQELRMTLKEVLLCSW
# Experiment: CRE/β-galactosidase reporter gene bioassay, agonist activity at mMC1R
# Format: cell-based
# Experimental Parameters: fold difference in EC50 vs peptide 1; negative prefix = more potent than 1
Square brackets hold non-standard residues; d marks the D form. Peptide text beside a SMILES is read from it. * marks the point of attachment. dPhe(4-I) = N[C@H](Cc1ccc(I)cc1)C(=O)O; 1Nal = N[C@@H](Cc1cccc2ccccc12)C(=O)O; 2Nal = N[C@@H](Cc1ccc2ccccc2c1)C(=O)O; Bta = N[C@@H](Cc1csc2ccccc12)C(=O)O; 2Thi = N[C@@H](Cc1cccs1)C(=O)O; Octanoyl = CCCCCCCC(=O)*
Number, no unit, nothing else.

CCCCCCCC(=O)N[C@@H](Cc1c[nH]cn1)C(=O)N[C@H](Cc1ccc(-c2ccccc2)cc1)C(=O)N[C@@H](CCCNC(=N)N)C(=O)N[C@@H](Cc1c[nH]c2ccccc12)C(N)=O [Peptide 7, Octanoyl-His-DBip-Arg-Trp-NH2] = −40

Entry CC(=O)N[C@@H](Cc1c[nH]c2ccccc12)C(=O)N[C@H](Cc1ccccc1)C(=O)N[C@@H](CCCNC(=N)N)C(=O)N[C@@H](Cc1cccc2ccccc12)C(N)=O [Peptide 24, Ac-Trp-DPhe-Arg-Nal(1’)-NH2] (Ac-W[dF]R[1Nal]-NH2) needs its mMC1R Fold Diff filled in; supply it.
23

Entry CC(=O)N[C@@H](Cc1cccs1)C(=O)N[C@H](Cc1ccccc1)C(=O)N[C@@H](CCCNC(=N)N)C(=O)N[C@@H](Cc1ccc2ccccc2c1)C(N)=O [Peptide 28, Ac-2Thi-DPhe-Arg-Nal(2’)-NH2] (Ac-[2Thi][dF]R[2Nal]-NH2) needs its mMC1R Fold Diff filled in; supply it.
19

Entry CCCCCCCC(=O)N[C@@H](Cc1c[nH]cn1)C(=O)N[C@H](Cc1ccccc1)C(=O)N[C@@H](CCCNC(=N)N)C(=O)N[C@@H](Cc1csc2ccccc12)C(N)=O [Peptide 3, Octanoyl-His-DPhe-Arg-3Bal-NH2] (Octanoyl-H[dF]R[Bta]-NH2) needs its mMC1R Fold Diff filled in; supply it.
−10

Entry CC(=O)N[C@@H](Cc1c[nH]c2ccccc12)C(=O)N[C@H](Cc1ccc(I)cc1)C(=O)N[C@@H](CCCNC(=N)N)C(=O)N[C@@H](Cc1c[nH]c2ccccc12)C(N)=O [Peptide 13, Ac-Trp-(pI)DPhe-Arg-Trp-NH2] (Ac-W[dPhe(4-I)]RW-NH2) needs its mMC1R Fold Diff filled in; supply it.
30

====

# Assayed System: mMC5R (Mus musculus, UniProt P41149)
# Sequence (P41149 whole entry): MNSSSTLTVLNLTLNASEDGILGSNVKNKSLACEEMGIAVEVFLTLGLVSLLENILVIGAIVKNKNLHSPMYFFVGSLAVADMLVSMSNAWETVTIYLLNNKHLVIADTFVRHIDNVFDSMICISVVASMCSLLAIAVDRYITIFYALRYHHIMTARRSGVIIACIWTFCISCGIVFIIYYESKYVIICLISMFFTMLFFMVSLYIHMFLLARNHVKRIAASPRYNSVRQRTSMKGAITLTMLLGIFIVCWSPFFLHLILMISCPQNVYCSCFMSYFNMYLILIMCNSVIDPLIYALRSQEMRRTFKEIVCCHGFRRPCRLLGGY
# Experiment: CRE/β-galactosidase reporter gene bioassay, agonist activity at mMC5R
# Type: cell-based
# Experimental Parameters: fold difference in EC50 vs peptide 1; negative prefix = more potent than 1
Square brackets hold non-standard residues; d marks the D form. Peptide text beside a SMILES is read from it. Bip = N[C@@H](Cc1ccc(-c2ccccc2)cc1)C(=O)O; dBip = N[C@H](Cc1ccc(-c2ccccc2)cc1)C(=O)O; dPhe(4-I) = N[C@H](Cc1ccc(I)cc1)C(=O)O; 2Nal = N[C@@H](Cc1ccc2ccccc2c1)C(=O)O; Bta = N[C@@H](Cc1csc2ccccc12)C(=O)O; 3Pal = N[C@@H](Cc1cccnc1)C(=O)O; 2Thi = N[C@@H](Cc1cccs1)C(=O)O
Parameter mMC5R Fold Diff.: see the listing below.
Number, no unit, nothing else.

Illustrative cases are given below, each with its answer.
CC(=O)N[C@@H](Cc1c[nH]c2ccccc12)C(=O)N[C@H](Cc1ccc(-c2ccccc2)cc1)C(=O)N[C@@H](CCCNC(=N)N)C(=O)N[C@@H](Cc1c[nH]c2ccccc12)C(N)=O [Peptide 18, Ac-Trp-DBip-Arg-Trp-NH2] (Ac-W[dBip]RW-NH2) = 340
CC(=O)N[C@@H](Cc1c[nH]cn1)C(=O)N[C@H](Cc1ccc(-c2ccccc2)cc1)C(=O)N[C@@H](CCCNC(=N)N)C(=O)N[C@@H](Cc1ccc(-c2ccccc2)cc1)C(N)=O [Peptide 33, Ac-His-DBip-Arg-Bip-NH2] (Ac-H[dBip]R[Bip]-NH2) = 6
CC(=O)N[C@@H](Cc1cccs1)C(=O)N[C@H](Cc1ccc(I)cc1)C(=O)N[C@@H](CCCNC(=N)N)C(=O)N[C@@H](Cc1c[nH]c2ccccc12)C(N)=O [Peptide 14, Ac-2Thi-(pI)DPhe-Arg-Trp-NH2] (Ac-[2Thi][dPhe(4-I)]RW-NH2) = 14
CC(=O)N[C@@H](Cc1c[nH]c2ccccc12)C(=O)N[C@H](Cc1ccccc1)C(=O)N[C@@H](CCCNC(=N)N)C(=O)N[C@@H](Cc1csc2ccccc12)C(N)=O [Peptide 25, Ac-Trp-DPhe-Arg-3Bal-NH2] (Ac-W[dF]R[Bta]-NH2) = 905

Jot down mMC5R Fold Diff. (mMC5R (Mus musculus, UniProt P41149)) of CC(=O)N[C@@H](Cc1ccc(-c2ccccc2)cc1)C(=O)N[C@H](Cc1ccc(I)cc1)C(=O)N[C@@H](CCCNC(=N)N)C(=O)N[C@@H](Cc1c[nH]c2ccccc12)C(N)=O [Peptide 17, Ac-Bip-(pI)DPhe-Arg-Trp-NH2] (Ac-[Bip][dPhe(4-I)]RW-NH2) .
83

Jot down mMC5R Fold Diff. (mMC5R (Mus musculus, UniProt P41149)) of CC(=O)N[C@@H](Cc1cccnc1)C(=O)N[C@H](Cc1ccccc1)C(=O)N[C@@H](CCCNC(=N)N)C(=O)N[C@@H](Cc1ccc2ccccc2c1)C(N)=O [Peptide 23, Ac-3PAL-DPhe-Arg-Nal(2’)-NH2] (Ac-[3Pal][dF]R[2Nal]-NH2) .
45

Jot down mMC5R Fold Diff. (mMC5R (Mus musculus, UniProt P41149)) of CC(=O)N[C@@H](Cc1cccs1)C(=O)N[C@H](Cc1ccccc1)C(=O)N[C@@H](CCCNC(=N)N)C(=O)N[C@@H](Cc1csc2ccccc12)C(N)=O [Peptide 27, Ac-2Thi-DPhe-Arg-3Bal-NH2] (Ac-[2Thi][dF]R[Bta]-NH2) .
183

Jot down mMC5R Fold Diff. (mMC5R (Mus musculus, UniProt P41149)) of CC(=O)N[C@@H](Cc1ccccc1)C(=O)N[C@H](Cc1ccc(I)cc1)C(=O)N[C@@H](CCCNC(=N)N)C(=O)N[C@@H](Cc1c[nH]c2ccccc12)C(N)=O [Peptide 15, Ac-Phe-(pI)DPhe-Arg-Trp-NH2] (Ac-F[dPhe(4-I)]RW-NH2) .
25
